Values were extracted from patent US20220031857A1.

# study target: T1, human serum albumin (human, UniProt P02768 25-609)
# T1 construct: Negative control protein; also called HSA
# T1 sequence (P02768 25-609 limits assumed): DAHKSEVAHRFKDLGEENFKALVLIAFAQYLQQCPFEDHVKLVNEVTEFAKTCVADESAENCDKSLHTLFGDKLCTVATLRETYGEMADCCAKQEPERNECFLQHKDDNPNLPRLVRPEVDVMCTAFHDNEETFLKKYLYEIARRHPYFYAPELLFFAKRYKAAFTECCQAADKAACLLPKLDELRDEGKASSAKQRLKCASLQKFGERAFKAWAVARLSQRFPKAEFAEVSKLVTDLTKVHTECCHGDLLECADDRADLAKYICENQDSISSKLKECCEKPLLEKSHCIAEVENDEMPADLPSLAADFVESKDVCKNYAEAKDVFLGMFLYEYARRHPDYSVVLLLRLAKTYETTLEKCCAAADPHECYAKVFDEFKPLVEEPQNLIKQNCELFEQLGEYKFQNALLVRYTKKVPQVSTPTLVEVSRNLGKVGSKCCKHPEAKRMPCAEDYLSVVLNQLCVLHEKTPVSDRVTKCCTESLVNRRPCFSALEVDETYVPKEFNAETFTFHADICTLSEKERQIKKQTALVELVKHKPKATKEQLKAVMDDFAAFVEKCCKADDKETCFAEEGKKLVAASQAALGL
# experimental protocol: phage ELISA
property name: binding result

SEQ ID NO 48 (VNAR clone displayed on phage) (VNAR, shark VNAR domain on M13 phage; coat-protein fusion not described) VNAR: ARVDQTPRSVTKETGESLTINCVLRDASYELGSTCWYRKKSGSTNEESISKGGRYVETVNSGSKSFSLRINDLTVEDGGTYRCGASLQCGNCELCDREQLQCGGQRGQLAACGDGTAVTVNA ... no binding
SEQ ID NO 10 (VNAR clone displayed on phage) (VNAR, shark VNAR domain on M13 phage; coat-protein fusion not described; also called clone 10) VNAR: ARVDQTPQTITKETGESLTINCVLRDSNCALSSTYWYRKKSGSTNEENISKGGRYVETVNSGSKSFSLRINDLTVEDSGTYRCNVVQYPSYNNYFWCDVYGDGTAVTVNA ... no binding
SEQ ID NO 1 (VNAR clone displayed on phage) (VNAR, shark VNAR domain on M13 phage; coat-protein fusion not described; also called clone 1) VNAR: ARVDQTPQTITKETGESLTINCVLRDNNCALSTTYWYRKKSGSTNEENISKGGRYVETVNSGSKSFSLKINDLTVEDSGTYRCNVRDVQACGNDWVWLDVYGGGTVVTVNA ... no binding
